Target: mTOR (Homo sapiens)
Construct: FLAG; made in house
Assay: In Vitro mTOR Kinase Assay (Echo), Test (a)(ii)
Assay type: biochemical
Settings: read-out: mTOR Kinase Assay (Echo)
measurement label: IC50 (nM)
API: value field is a number in nM; no unit string.

// below: answered compounds
>>> print(df.to_string())
                                   compound  endpoint_result
0  CC(C)NC(=O)Nc1ccc(-c2nc(N3CCOC[C@@H]3C)cc(C3(S(=O)(=O)C(C)C)CC3)n2)cc1             18.1
1  C[C@H]1COCCN1c1cc(C2(S(C)(=O)=O)CCC2)nc(-c2ccc(NC(=O)Nc3cnn(C)c3)cc2)n1             0.69
2  C[C@H]1COCCN1c1cc(C2(S(=O)(=O)c3ccccc3C(F)(F)F)CC2)nc(-c2ccc(NC(=O)NC(C)(C)CO)cc2)n1 [Example 10k]             50.2

We next turn to a different compound, shown below.
I have this compound here, `C[C@H]1COCCN1c1cc(C2(S(=O)(=O)c3ccc(F)cc3)CC2)nc(-c2ccc(NC(=O)NC3CC3)cc2)n1` , and I need its recorded IC50.
1.23

* * *

Molecular target: mTOR (Homo sapiens, UniProt P42345)
Construct: FLAG; made in house
Sequence (P42345 1362-2549): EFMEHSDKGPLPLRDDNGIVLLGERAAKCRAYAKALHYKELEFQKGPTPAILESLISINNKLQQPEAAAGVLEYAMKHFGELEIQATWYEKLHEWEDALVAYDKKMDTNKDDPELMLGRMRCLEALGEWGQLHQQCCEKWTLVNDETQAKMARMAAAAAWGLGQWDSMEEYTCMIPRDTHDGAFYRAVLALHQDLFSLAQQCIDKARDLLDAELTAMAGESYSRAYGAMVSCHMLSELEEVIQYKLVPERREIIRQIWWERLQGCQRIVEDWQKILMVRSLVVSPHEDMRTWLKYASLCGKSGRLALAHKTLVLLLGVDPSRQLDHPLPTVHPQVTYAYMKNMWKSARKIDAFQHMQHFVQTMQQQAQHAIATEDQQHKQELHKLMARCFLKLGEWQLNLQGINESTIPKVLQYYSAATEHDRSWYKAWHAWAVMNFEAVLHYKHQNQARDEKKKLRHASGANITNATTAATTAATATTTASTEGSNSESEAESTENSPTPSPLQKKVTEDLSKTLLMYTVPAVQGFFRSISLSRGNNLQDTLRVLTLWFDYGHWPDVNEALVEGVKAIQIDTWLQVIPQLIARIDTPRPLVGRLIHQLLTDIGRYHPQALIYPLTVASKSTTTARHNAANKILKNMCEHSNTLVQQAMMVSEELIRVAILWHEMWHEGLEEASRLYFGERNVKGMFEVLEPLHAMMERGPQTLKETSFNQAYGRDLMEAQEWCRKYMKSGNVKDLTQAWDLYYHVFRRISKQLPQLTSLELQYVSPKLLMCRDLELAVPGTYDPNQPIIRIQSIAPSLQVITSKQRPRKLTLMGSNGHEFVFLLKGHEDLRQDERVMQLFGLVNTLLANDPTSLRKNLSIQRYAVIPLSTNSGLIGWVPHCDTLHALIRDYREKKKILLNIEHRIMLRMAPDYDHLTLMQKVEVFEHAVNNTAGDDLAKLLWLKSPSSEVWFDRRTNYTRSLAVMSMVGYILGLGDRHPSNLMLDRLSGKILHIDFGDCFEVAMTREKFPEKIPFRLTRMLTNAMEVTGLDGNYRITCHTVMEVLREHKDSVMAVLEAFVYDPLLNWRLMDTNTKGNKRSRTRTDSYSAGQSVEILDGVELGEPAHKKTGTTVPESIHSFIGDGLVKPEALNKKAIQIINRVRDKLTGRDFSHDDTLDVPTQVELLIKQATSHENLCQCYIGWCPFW
Experiment: In Vitro mTOR Kinase Assay (Echo), Test (a)(ii)
Assay type: biochemical
measurement label: IC50 (nM)
API: value field is a number in nM; no unit string.

I have this compound here, C[C@H]1COCCN1c1cc(C2(S(=O)(=O)c3ccccc3)CC2)nc(-c2ccc(NC(=O)NCCCl)cc2)n1 [Example 36ee] , and I need its recorded IC50.
9.58

* * *

Molecular target: mTOR (Homo sapiens)
Construct: FLAG; made in house
Assay: In Vitro mTOR Kinase Assay (Echo), Test (a)(ii)
Type: biochemical
Settings: table of enzyme assay Test (a)(ii); read-out: Test (a)(ii) IC50
Description: (a)(ii) In Vitro mTOR Kinase Assay (Echo) The assay used AlphaScreen technology (Gray et al., Analytical Biochemistry, 2003, 313: 234-245) to determine the ability of test compounds to inhibit phosphorylation by recombinant mTOR. A C-terminal truncation of mTOR encompassing amino acid residues 1362 to 2549 of mTOR (EMBL Accession No. L34075) was stably expressed as a FLAG-tagged fusion in HEK293 cells as described by Vilella-Bach et al., Journal of Biochemistry, 1999, 274, 4266-4272. […]
Classification by IC50 follows these ranges: 1 (below 3 nM), 2 (3 nM to below 20 nM), 3 (20 nM or more)

Example cases with answers are listed next.
                                   compound  assigned_class
0  CCNC(=O)Nc1ccc(-c2nc(N3CCOC[C@@H]3C)cc(C3(S(=O)(=O)c4ccccc4F)CC3)n2)cc1 [Example 58e]               1
1  C[C@H]1COCCN1c1cc(C2(S(C)(=O)=O)CCNCC2)nc(-c2ccc(NC(=O)Nc3cnn(C)c3)cc2)n1 [Example 20d]               2
2  CNC(=O)Nc1ccc(-c2nc(N3CCOC[C@@H]3C)cc(C3(S(=O)(=O)CCC(C)(C)O)CC3)n2)cc1 [Example 79a]               3
3  C[C@H]1COCCN1c1cc(C2(S(=O)(=O)C3CC3)CCNCC2)nc(-c2ccc(NC(=O)Nc3cnn(C)c3)cc2)n1 [Example 21c]               3
4  CCS(=O)(=O)C1(c2cc(N3CCOC[C@@H]3C)nc(-c3ccc(NC(=S)NCCO)cc3)n2)CCC1 [Example 88a]               2

Sort into band: Cc1csc(S(=O)(=O)C2(c3cc(N4CCOC[C@@H]4C)nc(-c4ccc(NC(=O)Nc5ccccn5)cc4)n3)CC2)n1 [Example 25b]
1

Moving on to the next compound: CCS(=O)(=O)C1(c2cc(N3CCOC[C@@H]3C)nc(-c3ccc(NC(=O)NC)cc3)n2)CC1 [Example 11a]
2

Moving on to the next compound: CNC(=O)Nc1ccc(-c2nc(N3CCOC[C@@H]3C)cc(C3(S(=O)(=O)c4ccc(C)cc4)CC3)n2)cc1 [Example 95l]
1

Moving on to the next compound: CCNC(=O)Nc1ccc(-c2nc(N3CCOC[C@@H]3C)cc(C3(S(=O)(=O)CCO)CC3)n2)cc1 [Example 15a]
1

Moving on to the next compound: CNC(=O)Nc1ccc(-c2nc(N3CCOC[C@@H]3C)cc(C3(S(=O)(=O)c4nnc(C)s4)CC3)n2)cc1 [Example 38a]
1

Moving on to the next compound: C[C@H]1COCCN1c1cc(C2(S(=O)(=O)C3CC3)CC2)nc(-c2ccc(NC(=O)NCCO)nc2)n1 [Example 14c]
3

Moving on to the next compound: N#CCCNC(=O)Nc1ccc(-c2nc(N3CCOCC3)cc(C3(S(=O)(=O)c4ccncc4)CC3)n2)cc1 [Example 36aw]
2

Moving on to the next compound: C[C@H]1COCCN1c1cc(C2(S(=O)(=O)CCC(C)(C)O)CC2)nc(-c2ccc(NC(=O)Nc3cnn(C)c3)cc2)n1 [Example 79e]
3

Moving on to the next compound: Cc1nc(C)c(S(=O)(=O)C2(c3cc(N4CCOC[C@@H]4C)nc(-c4ccc(NC(=O)Nc5cnn(C)c5)cc4)n3)CC2)s1 [Example 78f]
3

* * *

In this section we review reported IC50 values for a set of molecules.
Molecular target: mTOR (Homo sapiens, UniProt P42345)
Construct: FLAG; made in house
Experiment: In Vitro mTOR Kinase Assay (Echo), Test (a)(ii)
Type: biochemical
Details: read-out: mTOR Kinase Assay (Echo)
API: value field is a number in nM; no unit string.

I have this molecule here, `C[C@H]1COCCN1c1cc(C2(S(C)(=O)=O)CC2)nc(-c2ccc(NC(=O)Nc3ccon3)cc2)n1` , and I need its recorded IC50.
0.137

Moving on to the next molecule: `C[C@H]1COCCN1c1cc(C2(S(C)(=O)=O)CC2)nc(-c2ccc(NC(=O)NC3CCC3)cc2)n1`
1.21

Moving on to the next molecule: CCNC(=O)Nc1ccc(-c2nc(N3CCOCC3)cc(C3(S(C)(=O)=O)CC3)n2)cc1 [Example 12b]
2.71

Moving on to the next molecule: `C[C@H]1COCCN1c1cc(C2(S(C)(=O)=O)CC2)nc(-c2ccc(NC(=O)Nc3ccc(Cl)cc3)cc2)n1`
1.38

Moving on to the next molecule: `CCNC(=O)Nc1ccc(-c2nc(N3CCOC[C@@H]3C)cc(C3(S(=O)(=O)C4CC4)CC3)n2)cc1`
1.66

Moving on to the next molecule: `CC(C)NC(=O)Nc1ccc(-c2nc(N3CCOC[C@@H]3C)cc(C3(S(C)(=O)=O)CC3)n2)cc1`
12

Moving on to the next molecule: `C[C@H]1COCCN1c1cc(C2(S(C)(=O)=O)CC2)nc(-c2ccc(NC(=O)NCCC#N)cc2)n1`
1.64

* * *

Target: mTOR (Homo sapiens, UniProt P42345)
Construct: FLAG; made in house
Test: In Vitro mTOR Kinase Assay (Echo), Test (a)(ii)
Type: biochemical
Conditions: table of enzyme assay Test (a)(ii); read-out: Test (a)(ii) IC50
measurement label: IC50 (nM)
API: value field is a number in nM; no unit string.

In [3]: df
Out[3]:
                                   molecule  measurement_label  measure_unit  endpoint_result
0  C[C@H]1COCCN1c1cc(C2(S(=O)(=O)c3ccccn3)CC2)nc(-c2ccc(NC(=O)NCc3ncc[nH]3)cc2)n1 [Example 36cu]               IC50            nM             68.6
1  C[C@H]1COCCN1c1cc(C2(S(C)(=O)=O)CC2)nc(-c2ccc(NC(=O)NCCF)cc2)n1 [Example 64aa]               IC50            nM             3.88
2  CNC(=S)Nc1ccc(-c2nc(N3CCOC[C@@H]3C)cc(C3(S(=O)(=O)c4ccncc4)CC3)n2)cc1 [Example 37af]               IC50            nM             23.3
3  C[C@H]1COCCN1c1cc(C2(S(C)(=O)=O)CCCC2)nc(-c2cnc(NC(=O)Nc3cnn(C)c3)nc2)n1 [Example 14v]               IC50            nM             82.3
4  C[C@H]1COCCN1c1cc(C2(S(=O)(=O)CCCO)CCC2)nc(-c2ccc(NC(=O)Nc3ncns3)cc2)n1 [Example 43s]               IC50            nM             6.29

I have this molecule here, C[C@H]1COCCN1c1cc(C2(S(C)(=O)=O)CC2)nc(-c2ccc(NC(=O)Nc3cnn(C)c3)c(F)c2)n1 [Example 52d] , and I need its recorded IC50.
5.88

Moving on to the next molecule: Cc1ccc(NC(=O)Nc2ccc(-c3nc(N4CCOC[C@@H]4C)cc(C4(S(C)(=O)=O)CC4)n3)cc2)cc1 [Example 2r]
1.03
